Sourced from patent US20080227763A1

Experiment: Solubility of nomegestrol acetate in solvent mixtures
Assay type: physicochemical
Settings: 95° ethanol/water binary mixture, aqueous with cosolvent or surfactant or cyclodextrin, 95° ethanol/water binary mixture, 30% 95° ethanol; read-out: Solubility of nomegestrol acetate
measured.quantity: solubility (µg/mL)

> print(dat)
                                   compound  recorded.measurement
1  CC(=O)O[C@]1(C(C)=O)CC[C@H]2[C@@H]3C=C(C)C4=CC(=O)CC[C@@H]4[C@H]3CC[C@@]21C [nomegestrol acetate]                   683

---

Test: Solubility of nomegestrol acetate in solvent mixtures
Assay type: physicochemical
Conditions: aqueous-alcoholic solvent mixture, aqueous with cosolvent or surfactant or cyclodextrin, aqueous-alcoholic mixture, 8% propyleneglycol, 0% Solketal; read-out: Solubility of nomegestrol acetate
measured.quantity: solubility (µg/mL)

> print(dat)
                                   compound  measured.quantity  recorded.measurement
1  CC(=O)O[C@]1(C(C)=O)CC[C@H]2[C@@H]3C=C(C)C4=CC(=O)CC[C@@H]4[C@H]3CC[C@@]21C [nomegestrol acetate]         solubility                  7700

---

Experiment: Solubility of nomegestrol acetate in solvent mixtures
Format: physicochemical
Conditions: aqueous-alcoholic solvent mixture, aqueous with cosolvent or surfactant or cyclodextrin, aqueous-alcoholic mixture, 8% propyleneglycol, 3% Solketal; read-out: Solubility of nomegestrol acetate
measured.quantity: solubility (mg/mL)

> print(dat)
                                   molecule  recorded.measurement
1  CC(=O)O[C@]1(C(C)=O)CC[C@H]2[C@@H]3C=C(C)C4=CC(=O)CC[C@@H]4[C@H]3CC[C@@]21C [nomegestrol acetate]                  10.7

---

Test: Solubility of nomegestrol acetate in solvent mixtures
Format: physicochemical
Details: aqueous-alcoholic solvent mixture, aqueous with cosolvent or surfactant or cyclodextrin, aqueous-alcoholic mixture, 0% propyleneglycol, 8% Transcutol®; read-out: Solubility of nomegestrol acetate
measured.quantity: solubility (mg/mL)

> print(dat)
                                   compound  recorded.measurement
1  CC(=O)O[C@]1(C(C)=O)CC[C@H]2[C@@H]3C=C(C)C4=CC(=O)CC[C@@H]4[C@H]3CC[C@@]21C [nomegestrol acetate]                  10.7

---

Test: Solubility of nomegestrol acetate in solvent mixtures
Format: physicochemical
Details: aqueous-alcoholic solvent mixture, aqueous with cosolvent or surfactant or cyclodextrin, aqueous-alcoholic mixture, 3% propyleneglycol, 8% Transcutol®; read-out: Solubility of nomegestrol acetate
measured.quantity: solubility

> print(dat)
                                   molecule  recorded.measurement
1  CC(=O)O[C@]1(C(C)=O)CC[C@H]2[C@@H]3C=C(C)C4=CC(=O)CC[C@@H]4[C@H]3CC[C@@]21C [nomegestrol acetate]            10.6 mg/mL

---

Assay: Solubility of nomegestrol acetate in solvent mixtures
Format: physicochemical
Conditions: ethanol/water/propyleneglycol ternary mixture, aqueous with cosolvent or surfactant or cyclodextrin, System III (Ethanol 95° 45%/Demineralized water 55%), 20% propyleneglycol; read-out: Solubilities
measured.quantity: solubility

> print(dat)
                                   compound  recorded.measurement
1  CC(=O)O[C@]1(C(C)=O)CC[C@H]2[C@@H]3C=C(C)C4=CC(=O)CC[C@@H]4[C@H]3CC[C@@]21C [nomegestrol acetate]            7900 µg/mL

---

Assay: Solubility of nomegestrol acetate in solvent mixtures
Type: physicochemical
Conditions: aqueous-alcoholic solvent mixture, aqueous with cosolvent or surfactant or cyclodextrin, aqueous-alcoholic mixture, 8% propyleneglycol, 3% Vitamin E TPGS; read-out: Solubility of nomegestrol acetate
measured.quantity: solubility (mg/mL)

> print(dat)
                                   compound  recorded.measurement
1  CC(=O)O[C@]1(C(C)=O)CC[C@H]2[C@@H]3C=C(C)C4=CC(=O)CC[C@@H]4[C@H]3CC[C@@]21C [nomegestrol acetate]                  12.5
